- Species on record: Rattus norvegicus
- Protocol Summary: Open TG-GATES - Regimen: Daily Repeat
- Assay type: toxicity, organism-based, Sprague-Dawley
- Design: regimen Daily Repeat, gender Male, age 6 weeks
- Condition Label: in vivo, po, 300 mg/kg, […], tissue Plasma, route gavage, dose level Middle, time 28 day
For each of the molecules below, state its TBIL.
Could you write the number and then its unit?

# lookup: TBIL of CCOc1ccc(NC(C)=O)cc1 [PHENACETIN]
0.074 mg/dL

Record request: TBIL value, item CNC(=C[N+](=O)[O-])NCCSCc1ccc(CN(C)C)o1 [RANITIDINE]
0.2 mg/dL

Reported TBIL, molecule O=C(OC[C@H]1O[C@@H](OC(=O)c2cc(O)c(O)c(OC(=O)c3cc(O)c(O)c(O)c3)c2)[C@H](OC(=O)c2cc(O)c(O)c(OC(=O)c3cc(O)c(O)c(O)c3)c2)[C@@H](OC(=O)c2cc(O)c(O)c(OC(=O)c3cc(O)c(O)c(O)c3)c2)[C@@H]1OC(=O)c1cc(O)c(O)c(OC(=O)c2cc(O)c(O)c(O)c2)c1)c1cc(O)c(O)c(OC(=O)c2cc(O)c(O)c(O)c2)c1 [TANNIC ACID] : ____
0.3 mg/dL

Look at this molecule and give its reported TBIL. COC(=O)C1=C(C)NC(C)=C(C(=O)OC)C1c1ccccc1[N+](=O)[O-] [NIFEDIPINE]
0.026 mg/dL

Name the reported TBIL value associated with the molecule Cc1nnc2n1-c1ccc(Cl)cc1C(c1ccccc1Cl)=NC2 [TRIAZOLAM]
0.058 mg/dL

Quick one: TBIL for CN/C(=N/CCSCc1nc[nH]c1C)NC#N [CIMETIDINE] ?
0.2 mg/dL
